// reported Ratio vs. GLP-1R for each item listed
- targetOrTestSystem: T1, human glucose-dependent insulinotropic polypeptide receptor (GIPR), expressed on CHO-K1 cells (human, UniProt P48546 22-466)
- T1 sequence (looked up): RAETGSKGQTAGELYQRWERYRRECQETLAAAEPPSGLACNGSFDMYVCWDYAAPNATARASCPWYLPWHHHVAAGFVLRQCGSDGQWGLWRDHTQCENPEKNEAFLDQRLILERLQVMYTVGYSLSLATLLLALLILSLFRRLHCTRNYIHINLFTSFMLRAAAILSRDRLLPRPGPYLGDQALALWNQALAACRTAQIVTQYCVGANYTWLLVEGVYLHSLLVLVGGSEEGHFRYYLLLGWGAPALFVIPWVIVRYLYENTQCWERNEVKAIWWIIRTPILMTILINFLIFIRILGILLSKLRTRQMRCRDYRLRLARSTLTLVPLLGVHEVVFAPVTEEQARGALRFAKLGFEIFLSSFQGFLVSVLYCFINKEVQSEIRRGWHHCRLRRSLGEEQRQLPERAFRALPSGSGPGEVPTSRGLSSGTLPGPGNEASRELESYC
- measurementDescription: cell-based or functional assay
Numbered stars: 1 amine (or outer) side, 2 acyl side, 3 side chain; on linkers, the order of the positions; unused ones are H or OH. Square brackets hold non-standard residues; d marks the D form. Side chains are listed from the residue outwards. Ends that are not written are not given here. * marks the point of attachment. C18 = C18 fatty acid (C16-C22 fatty acids conjugated via γGlu/8-amino-3,6-dioxaoctanoic acid spacers); Biotin = O=C1N[C@H]2[C@H](CS[C@H]2CCCCC(=O)*)N1; γGlu = O=C(O)[C@H](CCC(=O)[*:2])N[*:1]; AEEA = NCCOCCOCC(=O)O; Aib = CC(C)(N)C(=O)O
Write no unit; give the number alone.

Worked cases, answers included:
binder: Y[Aib]QGTFTSDYSK([AEEA-AEEA-γGlu-C18])LLDYMMQ[Aib]DFVQYLLEGGPSSGAPPPS-NH2 [SEQ ID NO. 85]
Ratio vs. GLP-1R: 1150
--
binder: Y[Aib]QGTFTSDYSK([AEEA-AEEA-γGlu-C18])LLDYMMQRDFVQWLLEGGPSSGAPPPSK(Biotin)-NH2 [SEQ ID NO. 90]
Ratio vs. GLP-1R: 311

Could you now look at the following binder, please?
Reported Ratio vs. GLP-1R, binder Y[Aib]QGTFTSDYSK([AEEA-AEEA-γGlu-C18])LLDYMMQKDFVQWLLEGGPSSGAPPPS-NH2 (not fully specified (residue 20); printed as YAibQGT FTSDY SK*LLD YMMQB* DFVQW LLEGG PSSGA PPPS) [SEQ ID NO. 88] : ____
432
